Cited source for all entries: patent US20220153851A1

Assayed target: T1, cynoCSF1R ECD-Fc (cynomolgus)
T1 construct: also called cynomolgus CSF1R ECD
T1 sequence (chain, as listed by the source): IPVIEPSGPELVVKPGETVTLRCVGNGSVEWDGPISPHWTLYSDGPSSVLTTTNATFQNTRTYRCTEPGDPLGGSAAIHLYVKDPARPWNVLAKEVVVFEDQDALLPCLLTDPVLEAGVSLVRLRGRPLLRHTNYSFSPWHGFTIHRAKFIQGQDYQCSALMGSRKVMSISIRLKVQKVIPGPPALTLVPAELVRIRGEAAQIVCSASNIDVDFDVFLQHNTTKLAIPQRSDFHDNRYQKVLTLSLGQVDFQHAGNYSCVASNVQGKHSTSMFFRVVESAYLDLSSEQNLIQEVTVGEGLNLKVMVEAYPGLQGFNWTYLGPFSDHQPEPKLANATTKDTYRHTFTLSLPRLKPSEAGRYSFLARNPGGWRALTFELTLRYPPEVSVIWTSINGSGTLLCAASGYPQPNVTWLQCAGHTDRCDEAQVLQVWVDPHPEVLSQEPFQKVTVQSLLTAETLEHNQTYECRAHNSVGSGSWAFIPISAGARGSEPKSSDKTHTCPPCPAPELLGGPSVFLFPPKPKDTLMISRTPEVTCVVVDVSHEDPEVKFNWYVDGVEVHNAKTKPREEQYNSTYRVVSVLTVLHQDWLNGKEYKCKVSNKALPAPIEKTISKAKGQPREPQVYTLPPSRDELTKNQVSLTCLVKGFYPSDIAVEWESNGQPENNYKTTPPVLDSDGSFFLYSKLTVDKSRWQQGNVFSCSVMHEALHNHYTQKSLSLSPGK
Experiment: ELISA, plate coated with cynoCSF1R ECD-Fc
binders and their reported EC50
Readout kind: EC50 (µg/mL)

Binder	Experimental result
h0302-L0H2 (antibody, human IgG4 S228P, kappa, V domains shown, also called Ab10; huAb 0302-L0H2) VH: QVQLVQSGAEVKKPGSSVKVSCKASGYTFSDFNIHWVRQAPGQGLEWIGYINPYTDVTVYNEKFKGRATLTSDKSTSTAYMELSSLRSEDTAVYYCASYFDGTFDYALDYWGQGTLVTVSS VL: EIVLTQSPATLSLSPGERATLSCRASESVDNYGLSFMNWYQQKPGQAPRLLIYTASNLESGIPARFSGSGSGTDFTLTISSLEPEDFAVYYCQQSKELPWTFGQGTKVEIKR	0.155
h0311-L1H2 (antibody, human IgG4 S228P, kappa, V domains shown, also called Ab16; huAb 0311-L1H2) VH: QVQLVQSGAEVKKPGSSVKVSCKASGYIFTDYNMHWVRQAPGQGLEWMGEINPNNGVVVYNQKFKGTTTLTVDKSTSTAYMELSSLRSEDTAVYYCTRALYHSNFGWYFDSWGQGTLVTVSS VL: DIVLTQSPATLSLSPGERATLSCKASQSVDYDGDSHMNWYQQKPGQAPRLLIYTASNLESGIPARFSGSGSGADFTLTISSLEPEDFAVYYCQQGNEDPWTFGQGTKVEIKR	0.0203
h0311-L1H1 (antibody, human IgG4 S228P, kappa, V domains shown, also called Ab14; huAb 0311-L1H1) VH: QVQLVQSGAEVKKPGSSVKVSCKASGYIFTDYNMHWVRQAPGQGLEWMGEINPNNGVVVYNQKFKGRVTITVDKSTSTAYMELSSLRSEDTAVYYCTRALYHSNFGWYFDSWGQGTLVTVSS VL: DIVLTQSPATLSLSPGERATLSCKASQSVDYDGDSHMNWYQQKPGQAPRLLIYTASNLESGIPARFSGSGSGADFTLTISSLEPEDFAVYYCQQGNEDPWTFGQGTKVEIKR	0.0309
